The reported measurements were obtained from paper PMC2756588.

Measured SPOT intensity of individual entries
Molecular target: T1, Bbc1, P47068
T1 sequence (P47068 1-78, looked up): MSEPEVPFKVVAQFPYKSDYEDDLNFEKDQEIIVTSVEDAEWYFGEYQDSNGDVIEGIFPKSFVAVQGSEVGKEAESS
Experiment: SPOT array
Conditions: median of control spots 796

Tell us which SPOT intensity value is on record for "KRNRLKILLPFLEQS"
46

Let me know recorded SPOT intensity for "LSKRLPLRFPEHTSS" , thanks.
2
